target: PI3Kβ (Homo sapiens, UniProt P42338); construct: made in house; assay: TR-FRET enzymatic activity assay, PI3Kβ; format: biochemical; conditions: Table 2; TR-FRET, 2x Km ATP, 30 minutes at 25° C.
Sequence (P42338 whole entry): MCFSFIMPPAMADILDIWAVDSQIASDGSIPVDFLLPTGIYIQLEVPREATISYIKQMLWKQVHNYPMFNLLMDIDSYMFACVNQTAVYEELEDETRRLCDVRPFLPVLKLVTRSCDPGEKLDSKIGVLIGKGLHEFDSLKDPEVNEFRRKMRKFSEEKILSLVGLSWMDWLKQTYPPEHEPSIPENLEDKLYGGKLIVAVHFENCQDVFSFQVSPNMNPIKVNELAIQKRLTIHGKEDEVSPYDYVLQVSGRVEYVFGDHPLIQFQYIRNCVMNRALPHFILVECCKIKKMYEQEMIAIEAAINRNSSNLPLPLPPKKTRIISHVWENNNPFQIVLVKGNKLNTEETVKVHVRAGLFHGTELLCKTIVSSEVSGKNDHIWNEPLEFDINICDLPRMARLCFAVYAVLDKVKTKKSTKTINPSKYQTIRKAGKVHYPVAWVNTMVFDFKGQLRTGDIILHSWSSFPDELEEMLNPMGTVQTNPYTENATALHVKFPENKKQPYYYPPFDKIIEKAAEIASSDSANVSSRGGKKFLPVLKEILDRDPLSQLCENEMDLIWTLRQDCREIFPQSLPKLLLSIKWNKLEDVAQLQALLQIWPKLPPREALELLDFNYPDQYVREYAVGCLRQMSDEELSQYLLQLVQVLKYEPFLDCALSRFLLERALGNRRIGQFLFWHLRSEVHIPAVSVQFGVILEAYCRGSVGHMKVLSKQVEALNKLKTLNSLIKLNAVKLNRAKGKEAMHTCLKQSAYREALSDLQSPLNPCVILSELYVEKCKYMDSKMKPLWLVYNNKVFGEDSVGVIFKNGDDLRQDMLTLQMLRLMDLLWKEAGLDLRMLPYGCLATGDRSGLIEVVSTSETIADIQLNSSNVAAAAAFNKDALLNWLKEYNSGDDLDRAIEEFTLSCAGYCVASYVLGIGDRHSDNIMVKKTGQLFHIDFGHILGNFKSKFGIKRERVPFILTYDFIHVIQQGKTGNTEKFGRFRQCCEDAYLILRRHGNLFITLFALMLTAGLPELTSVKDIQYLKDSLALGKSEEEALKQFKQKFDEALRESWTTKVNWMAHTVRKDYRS
Sequence (P27986 whole entry partner): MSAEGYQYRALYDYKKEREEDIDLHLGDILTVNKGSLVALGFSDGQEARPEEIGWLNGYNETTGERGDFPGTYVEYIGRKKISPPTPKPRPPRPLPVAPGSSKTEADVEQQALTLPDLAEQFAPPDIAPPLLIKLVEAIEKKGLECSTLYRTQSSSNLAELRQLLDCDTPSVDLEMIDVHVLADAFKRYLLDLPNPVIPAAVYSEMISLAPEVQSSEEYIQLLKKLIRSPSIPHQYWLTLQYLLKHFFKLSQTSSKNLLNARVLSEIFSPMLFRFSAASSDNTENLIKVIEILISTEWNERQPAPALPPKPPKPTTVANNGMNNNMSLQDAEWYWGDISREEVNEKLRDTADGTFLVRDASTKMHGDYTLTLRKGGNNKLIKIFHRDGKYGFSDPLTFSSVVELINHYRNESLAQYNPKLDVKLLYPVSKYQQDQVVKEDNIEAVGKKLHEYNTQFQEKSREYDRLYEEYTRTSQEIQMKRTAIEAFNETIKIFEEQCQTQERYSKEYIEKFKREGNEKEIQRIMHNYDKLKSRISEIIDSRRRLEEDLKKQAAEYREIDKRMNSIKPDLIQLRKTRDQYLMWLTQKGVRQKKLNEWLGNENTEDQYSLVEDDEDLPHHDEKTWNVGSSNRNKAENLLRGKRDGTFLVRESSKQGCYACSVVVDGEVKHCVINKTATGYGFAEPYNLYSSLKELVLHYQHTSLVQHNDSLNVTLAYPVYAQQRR
readout-kind: IC50 (nM)

Example cases with answers are listed next.
CC[C@H](Nc1nc(N)nc(C)c1C#N)c1nc2c(C#N)cccc2c(=O)n1-c1cn[nH]c1 : 16
N#Cc1c(N)nc(N)nc1N[C@H](c1nc2c(Cl)cccc2c(=O)n1-c1cc[nH]n1)C1CC1 : 2
C[C@H](Nc1nc(N)nc(N)c1Cl)c1nc2c(F)ccc(Cl)c2c(=O)n1-c1cc[nH]n1 : 3
C[C@H](NC(=O)c1nccnc1N)c1nc2cccc(Cl)c2c(=O)n1-c1cc[nH]n1 : 79
CC[C@H](Nc1ncnn2ccnc12)c1nc2c(Cl)ccc(Cl)c2c(=O)n1-c1cc[nH]n1 : 39
C[C@H](Nc1ncnc2sccc12)c1nc2cccc(Cl)c2c(=O)n1-c1cc[nH]n1 : 43
C[C@H](Nc1nc(N)nc(N)c1C#N)c1nc2cccc(Cl)c2c(=O)n1-c1cn[nH]c1 : 1
CC[C@H](Nc1ncnc2[nH]cnc12)c1nc2c(Cl)ccc(Cl)c2c(=O)n1-c1cn[nH]c1 : 380
N#Cc1c(N)nc(N)nc1N[C@H](c1nc2c(Cl)ccc(Cl)c2c(=O)n1-c1cn[nH]c1)C1CC1 : 1
CC[C@H](Nc1ncnc2ccc(Cl)nc12)c1nc2c(C#N)cccc2c(=O)n1-c1cn[nH]c1 : 100

(1) CC[C@H](Nc1nc(N)nc(N)c1C#N)c1nc2cccc(Cl)c2c(=O)n1-c1n[nH]cc1Br
(2) O=c1c2c(Cl)cccc2nc([C@@H](Nc2ncnc3scnc23)C2CC2)n1-c1cn[nH]c1
(3) CC[C@H](Nc1ncnc2scnc12)c1nc2cccc(Cl)c2c(=O)n1-c1n[nH]cc1Br
(4) CC[C@H](Nc1ncnc2scnc12)c1nc2cccc(S(C)(=O)=O)c2c(=O)n1-c1cc[nH]n1
### Prompt Rank entries according to their IC50, from the largest number down. Field: ranking. Enter the labels in the order requested.
### Response 3, 4, 1, 2
(3: 140 nM, 4: 70 nM, 1: 13 nM, 2: 5 nM)
